- experimental_target: HEK-293 cells transfected with dox-inducible human wild type FGFR2 (Homo sapiens (Human), UniProt P21802)
- Sequence (P21802 22-821): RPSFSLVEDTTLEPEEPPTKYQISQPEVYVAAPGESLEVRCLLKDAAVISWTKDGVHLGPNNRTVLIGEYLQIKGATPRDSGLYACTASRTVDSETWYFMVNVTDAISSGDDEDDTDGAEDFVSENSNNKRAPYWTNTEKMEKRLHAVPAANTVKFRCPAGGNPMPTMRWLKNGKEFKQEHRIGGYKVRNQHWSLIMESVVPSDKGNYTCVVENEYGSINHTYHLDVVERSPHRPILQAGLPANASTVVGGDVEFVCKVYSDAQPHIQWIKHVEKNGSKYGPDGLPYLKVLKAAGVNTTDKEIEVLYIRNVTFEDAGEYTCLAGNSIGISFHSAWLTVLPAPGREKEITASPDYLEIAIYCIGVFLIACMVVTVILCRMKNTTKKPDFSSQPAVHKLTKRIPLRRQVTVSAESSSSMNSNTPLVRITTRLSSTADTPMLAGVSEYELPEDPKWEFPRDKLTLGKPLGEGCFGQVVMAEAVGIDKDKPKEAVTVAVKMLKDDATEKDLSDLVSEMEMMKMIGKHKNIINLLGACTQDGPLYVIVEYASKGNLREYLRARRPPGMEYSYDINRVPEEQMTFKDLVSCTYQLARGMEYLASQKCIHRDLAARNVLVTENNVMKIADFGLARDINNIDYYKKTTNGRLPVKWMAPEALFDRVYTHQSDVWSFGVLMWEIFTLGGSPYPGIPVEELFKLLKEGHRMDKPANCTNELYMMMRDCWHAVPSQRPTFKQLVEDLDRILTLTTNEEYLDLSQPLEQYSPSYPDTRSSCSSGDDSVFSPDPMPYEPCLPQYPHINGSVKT
- test_details: FGFR2 pFGFR cell assay (ELISA)
- condition_summary: HEK-293 dox-inducible FGFR2, 1 hour compound, 30 ng/ml FGF-acidic
This listing pairs molecules with measured IC50.
Could you give me the number in nM? Just the number is fine.

COc1cc(-c2cnn(C3CCN(C(=O)C4CN(C(=O)/C=C/CF)C4)CC3)c2)cn2ncc(C#N)c12 [Example 142] :: 424
COC/C=C/C(=O)N1CC(F)(C(=O)N2CCC(n3ncc(-c4cc(OC)c5c(C#N)cnn5c4)c3C)CC2)C1 [Example 154] :: 327
C=CC(=O)N1CC(C(=O)N2CC3CCC(C2)N3c2ccc(-c3cc(OC)c4c(C#N)cnn4c3)cn2)C1 [Example 51] :: 433
COc1cc(-c2cnn(C3CCN(C(=O)C4(OC)CN(C(=O)/C=C/CN(C)C)C4)CC3)c2C)cn2ncc(C#N)c12 [Example 158] :: 1550
C=CC(=O)N1CCN(C(=O)N2CCC(n3cc(-c4cc(OC)c5c(C#N)cnn5c4)cn3)CC2)C[C@@H]1CC#N [Example 135] :: 83

Identify measured IC50 associated with C=CC(=O)N1CC(F)(C(=O)N2CCC(n3ncc(-c4cc(OC)c5c(C#N)cnn5c4)c3C)CC2)C1 [Example 85]
61

Tell us which IC50 value is on record for C=CC(=O)N1CC(OC)(C(=O)N2CCC(n3ncc(-c4cc(OC)c5c(Cl)cnn5c4)c3C)CC2)C1 [Example 117]
283

====

- experimental_target: recombinant human FGFR1 catalytic domain (amino acids 308-731) (Homo sapiens (Human))
- Sequence (P11362 other isoform, or with tags, fused parts or gaps): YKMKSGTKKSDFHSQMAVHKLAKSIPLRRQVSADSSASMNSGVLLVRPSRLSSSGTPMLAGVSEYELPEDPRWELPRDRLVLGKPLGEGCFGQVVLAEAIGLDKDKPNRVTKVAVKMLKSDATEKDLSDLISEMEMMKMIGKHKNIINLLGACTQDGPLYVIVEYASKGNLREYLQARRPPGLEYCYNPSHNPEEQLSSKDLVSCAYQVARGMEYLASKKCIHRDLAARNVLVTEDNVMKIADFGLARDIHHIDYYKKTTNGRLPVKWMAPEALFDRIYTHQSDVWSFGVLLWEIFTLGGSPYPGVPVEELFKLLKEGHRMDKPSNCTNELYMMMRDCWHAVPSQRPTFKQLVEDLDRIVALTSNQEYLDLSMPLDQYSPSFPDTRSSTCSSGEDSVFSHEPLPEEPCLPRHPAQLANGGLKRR
- test_details: FGFR1 enzyme activity assay (LanthaScreen TR-FRET)
- condition_summary: 20 min incubation at 22° C., average of multiple determinations if made, read-out: FGFR1 Enz FRET IC50
measured_metric: pIC50
The read-out pIC50 is expressed as -log10 of concentration in moles per litre.

Solved entries (count: 10):
C=CS(=O)(=O)N1CCC(C(=O)N2CCC(n3cc(-c4cc(OC)c5c(C#N)cnn5c4)cn3)CC2)CC1 :: 8.30
C=CC(=O)N1CCC(C(=O)N2CC(n3cc(-c4cc(OC)c5c(C#N)cnn5c4)cn3)C2)CC1 :: 7.41
C=CC(=O)Nc1ccccc1C(=O)N1CCC[C@@H](n2cc(-c3cc(OC)c4c(C#N)cnn4c3)cn2)C1 :: 7.28
C=CC(=O)N1CC(C(=O)N2CCN(c3ccc(-c4cc(OC)c5c(C#N)cnn5c4)nn3)CC2)C1 :: 7.07
C=CC(=O)N1CC[C@@H](C(=O)N2CCC(n3ncc(-c4cc(OC)c5c(C#N)cnn5c4)c3C)CC2)C1 :: 7.11
C=CC(=O)N1CC(C(=O)N2CCC(n3cc(-c4cc(-c5ccc(NC(=O)C6CC6)cc5F)c5c(C#N)cnn5c4)cn3)CC2)C1 :: 8.52
C=CC(=O)Nc1cccc(C(=O)N2CCC[C@@H](n3cc(-c4cc(OC)c5c(C#N)cnn5c4)cn3)C2)c1 :: 7.20
C=CC(=O)Nc1ccc(C(=O)N2CC[C@H](n3cc(-c4cc(OC)c5c(C#N)cnn5c4)cn3)C2)cc1OC :: 7.74
C=CC(=O)N(C)c1ccc(C(=O)N2CCC(n3cc(-c4cc(OC)c5c(C#N)cnn5c4)cn3)CC2)cc1 :: 7.85
C=CC(=O)N1CC(C(=O)N2CCC(n3cc(-c4cc(OC)c5c(C#N)cnn5c4)cn3)CC2)C1(C)C (centres unmarked) :: 8.22

Determine from records and report pIC50 for C=CC(=O)N1CC(C(=O)N2C3CCC2CN(c2ccc(-c4cc(OC)c5c(C#N)cnn5c4)cn2)C3)C1
7.62

State its pIC50 for this compound: COc1cc(-c2cnn(C3CCN(C(=O)C4(F)CN(C(=O)/C=C/CN(C)C)C4)CC3)c2C)cn2ncc(C#N)c12
7.41

Tell me its pIC50 given C=CC(=O)N1CCC[C@@H](C(=O)N2CCC(n3cc(-c4cc(OC)c5c(C#N)cnn5c4)cn3)CC2)C1 as the entry.
7.77

Read the entry C=CC(=O)N1CC(CN2CCC(n3cc(-c4cc(OC)c5c(C#N)cnn5c4)cn3)CC2)C1 and write its reported pIC50.
7.85
